- protocol_summary: Cytotoxicity against HGPRT deficient 6-thioguanine-resistant MDCK cells assessed as change in cell morphology after 3 days by microscopic analysis
- Type: cell-based, Canis lupus familiaris
- conditions_used: dog
endpoint_label: MCC at 72 h (µM)
Return type: number; implicit unit µM.

CCCCCCCCCCCCCCC(=O)Oc1ccc(COP(=O)(OCc2ccc(OC(=O)CCCC)cc2)OP(=O)(O)OC[C@H]2O[C@@H](n3cc(F)nc(C(N)=O)c3=O)[C@H](O)[C@@H]2O)cc1.CCN(CC)CC (stereo partly drawn) | 16

Lab note: next compound to report on.
Indicate its recorded MCC at 72 h; the compound in question is CCCCCCCCCCCCCCC(=O)Oc1ccc(COP(=O)(OCc2ccc(OC(=O)CCCC)cc2)OP(=O)(O)OC[C@H]2O[C@@H](n3ccnc(C(N)=O)c3=O)[C@H](O)[C@@H]2O)cc1.CCN(CC)CC (stereo partly drawn) 16

====

- protocol_summary: Cytotoxicity against MDCK cells assessed as change in cell morphology after 3 days by microscopic analysis
- Assay type: cell-based, Canis lupus familiaris
- conditions_used: dog
endpoint_label: MCC at 72 h

Consider the worked cases shown below.
NC(=O)c1nc(Br)cn([C@@H]2O[C@H](CO)[C@@H](O)[C@H]2O)c1=O | > 250 µM
NC(=O)c1nccn([C@@H]2O[C@H](CO)[C@@H](O)[C@H]2O)c1=O | > 250 µM

Lab note: next molecule to report on.
Indicate its recorded MCC at 72 h; the molecule in question is `NC(=O)c1nc(F)c[nH]c1=O` > 250 µM

====

- protocol_summary: Inhibition of Influenza virus A/X-31 RNA dependent RNA polymerase using ApG primer [adenyl (3'-5') guanosine] and [8-3H]GTP after 1 hr by filter-based assay
- Set-up: species or system Influenza A virus (A/X-31(H3N2))
Recorded IC50 by entry

Consider the worked cases shown below.
CCCCCCCCCCCCCCC(=O)Oc1ccc(COP(=O)(OCc2ccc(OC(=O)CCCC)cc2)OP(=O)(O)OC[C@H]2O[C@@H](n3ccnc(C(N)=O)c3=O)[C@H](O)[C@@H]2O)cc1.CCN(CC)CC (some centres undefined) | 49 to 126 µM
CCCCCCCCCC(=O)Oc1ccc(COP(=O)(OCc2ccc(OC(=O)CCCCCCCCC)cc2)OP(=O)(O)OP(=O)(O)OC[C@H]2O[C@@H](n3ccnc(C(N)=O)c3=O)[C@H](O)[C@@H]2O)cc1.CCN(CC)CC.CCN(CC)CC | 49 to 126 µM
NC(=O)c1nccn([C@@H]2O[C@H](COP(=O)(O)OP(=O)(O)OP(=O)(O)O)[C@@H](O)[C@H]2O)c1=O | 0.48 to 9.8 µM

Lab note: next compound to report on.
Indicate its recorded IC50; the compound in question is `CCCCCCCCCC(=O)Oc1ccc(COP(=O)(OCc2ccc(OC(=O)CCCCCCCCC)cc2)OP(=O)(O)OC[C@H]2O[C@@H](n3ccnc(C(N)=O)c3=O)[C@H](O)[C@@H]2O)cc1.CCN(CC)CC` 49 to 126 µM
